B1: SLC19A2 (parent)
chain: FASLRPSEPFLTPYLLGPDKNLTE

variants of: B1; assay: protein stability index of a GFP-peptide fusion (GPS, HEK-293T) (PSI 1-6); higher = more stable; conditions: c terminus: a fixed tail appended;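 also: lentivirally expressed fusions sorted by FACS into six bins by GFP to DsRed ratio, PSI derived from sequencing read proportions per bin multiplied by bin number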
observable: protein stability index
Give bare numbers.

Answered cases to consult:
entry_sequence="FASLRPYEPFLTPYLLGPDKNLTE [S7Y]" reported_value=1.42
entry_sequence="FASLRPSEPFLSPYLLGPDKNLTE [T12S]" reported_value=1.93
entry_sequence="FASLRPDEPFLTPYLLGPDKNLTE [S7D]" reported_value=1.92
entry_sequence="FASLRPSAPFLTPYLLGPDKNLTE [E8A]" reported_value=1.49
entry_sequence="FASLRPSEPHLTPYLLGPDKNLTE [F10H]" reported_value=2.61

List the reported protein stability index of each variant below.
1. FASLRPSEPFLTPYLLGPDWNLTE [K20W]
2. FHSLRPSEPFLTPYLLGPDKNLTE [A2H]
3. FAILRPSEPFLTPYLLGPDKNLTE [S3I]
4. FASLRPSEPFLTPYLLGWDKNLTE [P18W]
5. FYSLRPSEPFLTPYLLGPDKNLTE [A2Y]
6. FASLRPSEPFLTPYLLWPDKNLTE [G17W]
7. FASLRPSFPFLTPYLLGPDKNLTE [E8F]

Data returned:
[2.04, 1.63, 1.69, 1.76, 2.05, 2.1, 1.78]

Hi there! I need protein stability index for each item below, if you can.
1. FASLRPSEPFLTPYLLYPDKNLTE [G17Y]
2. FASLRPSEPFLTPYLLGPDKDLTE [N21D]

Data returned:
[1.79, 1.84]

I have 4 variants here; please give me protein stability index for each one.
1. FASLDPSEPFLTPYLLGPDKNLTE [R5D]
2. FASLRPSEPFLTPYLYGPDKNLTE [L16Y]
3. LASLRPSEPFLTPYLLGPDKNLTE [F1L]
4. FASLRPSEPQLTPYLLGPDKNLTE [F10Q]

Data returned:
1. 1.73
2. 1.3
3. 2.93
4. 2.44

Go through the items and report each one's protein stability index.
1. FASLRPSETFLTPYLLGPDKNLTE [P9T]
2. EASLRPSEPFLTPYLLGPDKNLTE [F1E]
3. FASLRGSEPFLTPYLLGPDKNLTE [P6G]
4. FASLRPSEPFLTPYLLGPDKNWTE [L22W]

Data returned:
1. 2.48
2. 4.2
3. 1.71
4. 1.98
